PBM binding z-score values by entry
Tested on: PPARg DBDmut:RXRa IVT, anti-PPARg (DBD mutation: PPARg1 K132A/R137A, NR concentration 270 nM, RXRa partner concentration 90 nM)
Experiment: PBM binding z-score (relative to random genomic background probes); higher = stronger binding; sequences stand for … in GC…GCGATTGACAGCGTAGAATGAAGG
The response must contain the number and no unit.

Q: Please give the measured PBM binding z-score for this sequence: `TCATATACGTAAAAGGTGAAAGTCGGTGTGGTAA`
Result: 2.06

Q: And for `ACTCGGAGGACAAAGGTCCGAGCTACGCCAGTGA` ?
Result: -0.996

Q: Entry to check: `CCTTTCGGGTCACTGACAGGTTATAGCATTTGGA`
Result: 0.931

Q: Can you check `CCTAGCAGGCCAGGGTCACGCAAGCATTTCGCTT` next?
Result: -1.04

Q: What about `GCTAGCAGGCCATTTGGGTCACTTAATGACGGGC` ?
Result: -0.44
